Source of measurements: paper PMC10451623

Measured EC50, listed per entry.
Molecular target: UniProt:P37231
Assay: TR-FRET PGC1α coactivator recruitment assay
Format: biochemical
Design: PPARγ-LBD (amino acids 203–477 in isoform 1); made in house; host or cells: Rosetta (DE3) pLysS (E. coli)
Conditions: PGC1α peptide, read-out: EC50, PGC1α recruitment to PPARγ-LBD
Give the figure together with its unit, number first.

{"columns": ["structure_smiles", "test_system", "measurement_name", "result"],
 "data": [
  ["O=C(O)CCCc1cc2cc(Cl)ccc2n1S(=O)(=O)c1ccc2ncsc2c1", "UniProt:P37231", "EC50", "4.65 µM"],
  ["CSc1ccc(C(=O)/C=C/c2cc(C)c(OC(C)(C)C(=O)O)c(C)c2)cc1", "UniProt:P37231", "EC50", "15.5 µM"],
  ["CCO[C@@H](Cc1ccc(OCCn2c(C)ccc2-c2ccc(SC)cc2)cc1)C(=O)O", "UniProt:P37231", "EC50", "1.03 µM"]
]}

Ask | Any idea what EC50 was measured for CCO[C@H](COc1ccc(C(F)(F)F)cc1)CSc1ccc(OCC(=O)O)c(C)c1 ?
Reply | 19.4 µM

----------
Biological target: PPARγ-LBD (Homo sapiens, UniProt P37231)
Sequence (P37231 231-505): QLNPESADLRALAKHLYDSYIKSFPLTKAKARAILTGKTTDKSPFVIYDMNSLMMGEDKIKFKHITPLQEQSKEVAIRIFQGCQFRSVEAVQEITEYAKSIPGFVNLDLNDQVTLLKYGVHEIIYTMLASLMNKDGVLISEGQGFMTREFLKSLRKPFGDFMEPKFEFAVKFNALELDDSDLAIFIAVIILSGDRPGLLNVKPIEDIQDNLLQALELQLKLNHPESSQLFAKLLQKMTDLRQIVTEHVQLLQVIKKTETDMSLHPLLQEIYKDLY
Assay: Thermal stability assay using circular dichroism spectroscopy
Format: binding
Set-up: PPARγ-LBD (amino acids 203–477 in isoform 1); His tag (pET28a) (N); made in house; host or cells: Rosetta (DE3) pLysS (E. coli)
Settings: CD at 222 nm; 10 µM LBD; GW1929 at 10 µM
measurement_name: Effect on Tm of PPARγ-LBD (in words)

{"columns": ["structure_smiles", "result"],
 "data": [
  ["CCO[C@H](COc1ccc(C(F)(F)F)cc1)CSc1ccc(OCC(=O)O)c(C)c1", "increased the Tm values"],
  ["O=C(O)CCCc1cc2cc(Cl)ccc2n1S(=O)(=O)c1ccc2ncsc2c1", "increased the Tm values"]
]}

----------
Biological target: PPARα-LBD (Homo sapiens, UniProt Q07869)
Sequence (Q07869 200-468): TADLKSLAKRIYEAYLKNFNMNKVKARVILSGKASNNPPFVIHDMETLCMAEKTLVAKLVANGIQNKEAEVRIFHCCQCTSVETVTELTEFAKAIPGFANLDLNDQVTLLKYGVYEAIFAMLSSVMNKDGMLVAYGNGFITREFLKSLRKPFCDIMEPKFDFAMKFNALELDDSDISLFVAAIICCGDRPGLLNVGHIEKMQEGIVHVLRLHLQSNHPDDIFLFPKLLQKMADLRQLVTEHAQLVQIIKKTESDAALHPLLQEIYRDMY
Test: Thermal stability assay using circular dichroism spectroscopy
Type: binding
Set-up: Human PPARα-LBD (amino acids 200–468); His tag (pET28a) (N); made in house; host or cells: Rosetta (DE3) pLysS (E. coli)
Conditions: CD at 222 nm; 10 µM LBD; GW7647 at 10 µM

{"columns": ["compound", "Effect on Tm of PPARα-LBD (in words)"],
 "data": [
  ["CCO[C@H](COc1ccc(C(F)(F)F)cc1)CSc1ccc(OCC(=O)O)c(C)c1 [seladelpar]", "increased the Tm values"],
  ["O=C(O)CCCc1cc2cc(Cl)ccc2n1S(=O)(=O)c1ccc2ncsc2c1 [lanifibranor]", "increased the Tm values"]
]}
